These measurements were taken from ChEMBL document CHEMBL1811789.

system: Human immunodeficiency virus 1; assay: Antiviral activity against wild type HIV1 3B infected in human C8166 cells assessed as inhibition of viral-induced cytopathogenicity after 3 days by syncytium formation assay; assay type: functional, organism-based; conditions: Human immunodeficiency virus 1, 3B, C8166, 72 h
readout: EC50 (nM)
Quick reminder: number only, in nM, skip the unit.

Example entries and their recorded answers appear below.
Cc1cc(S(N)(=O)=O)ccc1NC(=O)COc1ccc(Cl)cc1C(O)c1ccccc1 (racemic) : 1120
Cc1cc(S(N)(=O)=O)ccc1NC(=O)COc1ccc(Cl)cc1C(O)c1ccccc1C (racemic) : 1210

Ask: Using the record for Cc1cc(C)cc(C(O)c2cc(Cl)ccc2OCC(=O)Nc2ccc(S(N)(=O)=O)cc2C)c1 (racemic) , report its EC50.
Reply: 180

Ask: Field entry: Cc1cc(S(N)(=O)=O)ccc1NC(=O)COc1ccc(Cl)cc1C(O)c1cccc2ccccc12 (racemic)
Reply: 390

----------
// reported CC50 for each item listed
assay: Cytotoxicity against human C8166 cells by MTT assay; assay type: cell-based
Just the number in µM, nothing appended.

Past entries and their recorded results:
Cc1cc(S(N)(=O)=O)ccc1NC(=O)COc1ccc(Cl)cc1C(O)c1ccc2ccccc2c1 (racemic) : 15.7
Cc1ccc(C)c(C(O)c2cc(Cl)ccc2OCC(=O)Nc2ccc(S(N)(=O)=O)cc2C)c1 (racemic) : 35.5
Cc1cc(S(N)(=O)=O)ccc1NC(=O)COc1ccc(Cl)cc1C(O)c1cc(Cl)ccc1Cl (racemic) : 36.2

Ask: So what does the record say about CC50 for Cc1cc(S(N)(=O)=O)ccc1NC(=O)COc1ccc(Cl)cc1C(O)c1ccccc1C (racemic) ?
Reply: 33.9

Ask: Also need Cc1cc(S(N)(=O)=O)ccc1NC(=O)COc1ccc(Cl)cc1C(O)c1cccc2ccccc12 (racemic) , thanks.
Reply: 31.1

Ask: Another molecule to look at: Cc1ccc(C(O)c2cc(Cl)ccc2OCC(=O)Nc2ccc(S(N)(=O)=O)cc2C)cc1 (racemic)
Reply: 38.7

Ask: Another: Cc1cc(S(N)(=O)=O)ccc1NC(=O)COc1ccc(Cl)cc1C(O)c1cccc(C)c1C (racemic)
Reply: 218

Ask: Now consider Cc1cc(C)cc(C(O)c2cc(Cl)ccc2OCC(=O)Nc2ccc(S(N)(=O)=O)cc2C)c1 (racemic) and answer again.
Reply: 29.4

----------
assay: Cytotoxicity against human C8166 cells by MTT assay; assay type: cell-based
readout: CC50 (µM)
Field: numeric (µM). Do not append units.

Examples from the recorded data:
Cc1cc(S(N)(=O)=O)ccc1NC(=O)COc1ccc(Cl)cc1C(O)c1ccc(Cl)c(Cl)c1 (racemic) : 24
Cc1cc(S(N)(=O)=O)ccc1NC(=O)COc1ccc(Cl)cc1C(O)c1cccc([N+](=O)[O-])c1 (racemic) : 36.9
Cc1ccc(C(O)c2cc(Cl)ccc2OCC(=O)Nc2ccc(S(N)(=O)=O)cc2C)c(C)c1 (racemic) : 26.4
Cc1cccc(C(O)c2cc(Cl)ccc2OCC(=O)Nc2ccc(S(N)(=O)=O)cc2C)c1 (racemic) : 33.1

Ask: Name the recorded CC50 for Cc1cc(S(N)(=O)=O)ccc1NC(=O)COc1ccc(Cl)cc1C(O)c1ccccc1Cl (racemic) .
Reply: 32
